Hello, the source for this data is patent US11230581B2, in case you need it.

# assayed_system: HLA-A*02:01 (Homo sapiens, UniProt P04439, D140Y/D185E/D98H/E176V/E277Q/G131W/G231S/I119V/I121R/I166T/I218V/L300P/L318F/N151K/N90K/P208A/P217A/Q86G/Q94H/R138H/R169H/T345S)
# assay_details: MHC binding assay (UV-ligand exchange, β2m ELISA, peptide exchange yield)
# condition_context: binding of HLA-class I restricted peptides to HLA-A*02:01, UV-ligand exchange
parameter: Peptide exchange (MHC class I binding score, peptide exchange yield)

Take a look at these entries with their results.
> print(dat)
                                  substance        test.result
1  549 (AMLENASDIKL; listed as Homo sapiens) [compound 549]  “+++” (≥50 = +++)
2  204 (KIAENVEEV; listed as Homo sapiens) [compound 204]   “++” (≥20% = ++)
3  427 (ALLPLSPYL; listed as Homo sapiens) [compound 427]  “+++” (≥50 = +++)
4  396 (ALLPDLPAL; listed as Homo sapiens) [compound 396]  “+++” (≥50 = +++)

Query block: Find the recorded Peptide exchange (MHC class I binding score, peptide exchange yield) belonging to 12 (SLWPDPMEV; listed as Homo sapiens) [compound 12] and report it.
Result block: “+++” (≥50 = +++)

Query block: Entry 200 (LLFGSVQEV; listed as Homo sapiens) [compound 200] please
Result block: “+++” (≥50 = +++)

Query block: Thanks! And 103 (TLAEEVVAL; listed as Homo sapiens) [compound 103] ?
Result block: “+++” (≥50 = +++)
